Reference for the values: the supplement of paper PMC10065799

molecular target: EPHB1 (UniProt P54762); experiment: phosphorylation enrichment, bacterial display (enrichment ratio); higher = better substrate or ligand; peptides without Tyr show the background;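 further: 11-residue human phosphosite peptides and single-mutation variants displayed on the E. coli surface, counted by deep sequencing, each peptide's frequency after selection divided by its frequency in the unselected input library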;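 further: frequency after pTyr selection over input frequency; kinase dosed for 20-30% of maximal phosphorylation in three min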
Sequence (P54762 whole entry, looked up): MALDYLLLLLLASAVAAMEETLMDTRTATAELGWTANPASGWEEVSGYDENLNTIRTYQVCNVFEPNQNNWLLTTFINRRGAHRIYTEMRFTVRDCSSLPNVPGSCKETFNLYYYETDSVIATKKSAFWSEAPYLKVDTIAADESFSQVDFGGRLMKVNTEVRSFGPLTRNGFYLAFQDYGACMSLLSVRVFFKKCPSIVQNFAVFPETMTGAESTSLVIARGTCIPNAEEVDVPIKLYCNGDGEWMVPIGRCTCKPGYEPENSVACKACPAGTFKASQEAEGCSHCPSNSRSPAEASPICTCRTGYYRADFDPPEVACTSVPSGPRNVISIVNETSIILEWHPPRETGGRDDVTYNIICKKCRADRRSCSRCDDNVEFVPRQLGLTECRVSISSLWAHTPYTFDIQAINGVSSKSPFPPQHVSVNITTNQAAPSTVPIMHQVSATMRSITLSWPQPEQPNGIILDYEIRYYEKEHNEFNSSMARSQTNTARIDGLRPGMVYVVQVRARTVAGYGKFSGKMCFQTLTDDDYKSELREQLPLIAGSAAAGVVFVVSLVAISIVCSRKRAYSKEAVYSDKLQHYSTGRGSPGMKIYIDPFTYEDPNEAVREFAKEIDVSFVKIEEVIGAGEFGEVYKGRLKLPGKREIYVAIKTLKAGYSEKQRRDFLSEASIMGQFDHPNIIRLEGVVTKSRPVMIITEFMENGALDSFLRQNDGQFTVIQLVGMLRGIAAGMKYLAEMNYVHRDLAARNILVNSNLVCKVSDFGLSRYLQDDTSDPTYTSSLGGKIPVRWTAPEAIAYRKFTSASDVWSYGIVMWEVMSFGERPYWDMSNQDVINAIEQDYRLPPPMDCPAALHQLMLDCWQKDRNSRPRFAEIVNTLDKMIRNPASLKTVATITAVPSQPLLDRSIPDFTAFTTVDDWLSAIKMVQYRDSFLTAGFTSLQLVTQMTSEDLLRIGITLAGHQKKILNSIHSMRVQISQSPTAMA
Criterion: phosphorylation enrichment meeting or surpassing 0.5. Met: Fulfilled. Not met: Not fulfilled.

# construct_sequence, category
measured = [
    ("GGTTLYPGIAD [ACTC1_Y308_M307L]", "Not fulfilled"),
    ("RQQQDYWLKDV [ANPEP_Y600_I603K]", "Not fulfilled"),
    ("MDDKEYYSVHN [MET_Y1234_Y1230D]", "Fulfilled"),
    ("APSHAYHRGVL [ANO1_Y981_G983R]", "Not fulfilled"),
    ("ENAGYYFRISA", "Fulfilled"),
    ("QFQLKYSETPF [SIX6OS1_Y129_YF]", "Fulfilled"),
    ("KVALLYKPFFF [POLE_Y100_P99L_YF]", "Fulfilled"),
    ("LVMFIYAIFGM [SCN1A_Y1684]", "Fulfilled"),
    ("TDKLFYIFTPG [SLC27A4_Y243_S247P_YF]", "Fulfilled"),
    ("HFPDVYAWEQL [ALX3_Y181_R183W_YF]", "Fulfilled"),
    ("RDLTHYLMKIL [ACTG1_Y188_D187H]", "Fulfilled"),
    ("DGKFSYLKVGH [GRM3_Y480_G475D_YF]", "Not fulfilled"),
    ("NLSVPYDSSLK [ABCC8_Y1353_R1352P]", "Not fulfilled"),
    ("ENAGFYFRVSA", "Fulfilled"),
    ("ILGRYYETGSI [PAX2_Y73]", "Fulfilled"),
    ("NNHGNYIVHLG [ETFDH_Y172_R175H]", "Fulfilled"),
    ("MRALTYCDLHK [KCNH2_Y827_V822M]", "Fulfilled"),
]
